- Tested on: Yap1 mRNA
- runDescription: Antisense inhibition of human Yap1 in A-431 cells by cEt gapmers, single dose (Example 3, RTS36584)
- Assay type: cell-based
- runParameters: Table 11; A-431 cells, 5,000 cells per well, free uptake, 2,000 nM oligonucleotide, approx. 48 hours; primer probe set RTS36584; Yap1 mRNA normalized to RIBOGREEN, percent of untreated control
Strand notation (5' to 3'): a small letter for the sugar, then the base; units joined by * are phosphorothioate-linked, units joined directly phosphodiester-linked; [ ] holds rarer units or linkages, { } end groups; capitals alone tell only the bases. k = constrained ethyl (cEt); [5mC] = 5-methylcytosine; d = 2'-deoxy (DNA)
Lab note: compare YAP1 (% UTC) against 20 % UTC. Equal or greater, write 1 (yes). Smaller, write 0 (no).

{"substance": "958583 (kA*kG*k[5mC]*dT*dA*dA*dT*d[5mC]*dT*dG*d[5mC]*dT*dG*kA*kT*kA; antisense) [Compound 958583]", "experimentalSystem": "Yap1 mRNA", "answerLabel": "1 (yes)"}
{"substance": "958683 (kT*kA*kT*dT*dG*dT*dG*d[5mC]*dT*dG*d[5mC]*dA*dT*k[5mC]*kT*k[5mC]; antisense) [Compound 958683]", "experimentalSystem": "Yap1 mRNA", "answerLabel": "0 (no)"}
{"substance": "958593 (kG*kG*kT*d[5mC]*dA*dG*dT*dA*d[5mC]*dA*dG*dA*dG*kG*kG*k[5mC]; antisense) [Compound 958593]", "experimentalSystem": "Yap1 mRNA", "answerLabel": "0 (no)"}
{"substance": "958778 (antisense kG*k[5mC]*kT*dA*d[5mC]*d[5mC]*dT*dG*dG*dA*dG*d[5mC]*dG*kA*kA*kG) [Compound 958778]", "experimentalSystem": "Yap1 mRNA", "answerLabel": "1 (yes)"}
{"substance": "958773 (antisense kA*kG*k[5mC]*dT*dG*dG*dT*dA*dG*dG*dG*d[5mC]*dA*kA*kG*kA) [Compound 958773]", "experimentalSystem": "Yap1 mRNA", "answerLabel": "1 (yes)"}
{"substance": "958758 (antisense k[5mC]*kT*kA*dT*dT*d[5mC]*dA*dG*dT*dG*dA*dT*d[5mC]*kT*kG*k[5mC]) [Compound 958758]", "experimentalSystem": "Yap1 mRNA", "answerLabel": "0 (no)"}

###

# log10 AST values compiled below
- runDescription: Tolerability in Balb/c mice, plasma chemistry markers (Example 12)
- Assay type: in vivo
- runParameters: 50 mg/kg subcutaneously twice a week for four weeks
Strand notation (5' to 3'): a small letter for the sugar, then the base; units joined by * are phosphorothioate-linked, units joined directly phosphodiester-linked; [ ] holds rarer units or linkages, { } end groups; capitals alone tell only the bases. k = constrained ethyl (cEt); [5mC] = 5-methylcytosine; d = 2'-deoxy (DNA)
measure: log10 AST (log10 of the value in U/L)

{"substance": "958499 (ATTAGAGTATGTGGCA; 3-10-3 cEt gapmer, further chemistry not given here) [compound 958499]", "quantitativeReadout": 2.16}
{"substance": "958603 (kT*kG*kG*dT*dA*dT*dG*dA*dA*dT*dT*d[5mC]*dT*kG*kA*kA; antisense) [compound 958603]", "quantitativeReadout": 2.97}
{"substance": "958721 (kG*kT*kA*dG*dT*dA*dT*dA*dA*dT*dG*dA*dG*kT*kT*kA; antisense) [compound 958721]", "quantitativeReadout": 2.06}
{"substance": "958736 (kG*kT*kG*dA*dT*dA*dT*dG*dG*dA*dT*dT*d[5mC]*kT*kG*kT; antisense) [compound 958736]", "quantitativeReadout": 3.16}
{"substance": "958729 (kG*kT*k[5mC]*dA*dG*dT*dT*dA*dT*d[5mC]*d[5mC]*dT*dA*kT*k[5mC]*kT; antisense) [compound 958729]", "quantitativeReadout": 3.65}
{"substance": "958375 (antisense kA*kA*kA*dG*d[5mC]*d[5mC]*dT*dT*dA*dG*dA*dG*dT*k[5mC]*kA*kA) [compound 958375]", "quantitativeReadout": 3.48}

###

- System: Yap1 mRNA
- runDescription: Dose-dependent inhibition of human Yap1 in SNU-449 cells (Example 9, RTS36584)
- Type: cell-based
- runParameters: 31.3 nM, free uptake, approximately 48 hours
Strand notation (5' to 3'): a small letter for the sugar, then the base; units joined by * are phosphorothioate-linked, units joined directly phosphodiester-linked; [ ] holds rarer units or linkages, { } end groups; capitals alone tell only the bases. e = 2'-O-(2-methoxyethyl) (MOE); k = constrained ethyl (cEt); [5mC] = 5-methylcytosine; d = 2'-deoxy (DNA)
% UTC (Yap1 mRNA) values by entry
measure: % UTC (Yap1 mRNA) (% UTC)

{"substance": "1009325 (kA*kG*kA*dG*dT*dA*dT*dG*dT*dG*dG*d[5mC]*dA*kA*kT*kA; antisense) [compound 1009325]", "experimentalSystem": "Yap1 mRNA", "quantitativeReadout": 59}
{"substance": "1200789 (G_{ks}G_{ks}A_{ks}A_{ds}A_{ds}U_{ys}T_{ds}G_{ds}T_{ds}^{m}C_{ds}T_{ds}^{m}C_{ds}A_{ds}T_{ks}G_{ks}^{m}C_{k}; as printed in the source, key not given here) [compound 1200789]", "experimentalSystem": "Yap1 mRNA", "quantitativeReadout": 60}
{"substance": "1198697 (kA*kG*dT*dG*dT*dA*dT*dG*dT*d[5mC]*dA*dG*kA*eA*kG*eA) [compound 1198697]", "experimentalSystem": "Yap1 mRNA", "quantitativeReadout": 60}

###

- runDescription: Tolerability in Balb/c mice, plasma chemistry markers (Example 11)
- Type: in vivo
- runParameters: 50 mg/kg subcutaneously twice a week for four weeks
Strand notation (5' to 3'): a small letter for the sugar, then the base; units joined by * are phosphorothioate-linked, units joined directly phosphodiester-linked; [ ] holds rarer units or linkages, { } end groups; capitals alone tell only the bases. k = constrained ethyl (cEt); [5mC] = 5-methylcytosine; d = 2'-deoxy (DNA)
Mark Criterion met for TBIL under 0.2 mg/dL, Criterion not met if at or over.

{"substance": "716502 (antisense k[5mC]*kA*k[5mC]*dA*dG*dT*dG*dA*dT*dT*dG*d[5mC]*dA*kT*kT*kT) [compound 716502]", "answerLabel": "Criterion not met"}
{"substance": "715487 (kA*kT*kT*dA*d[5mC]*dT*dT*d[5mC]*dA*dT*dA*dG*d[5mC]*kT*kT*kA) [compound 715487]", "answerLabel": "Criterion met"}
{"substance": "716454 (antisense k[5mC]*kG*kA*dG*dA*dT*dT*dT*dA*dA*dA*dT*dA*kA*kG*kG) [compound 716454]", "answerLabel": "Criterion met"}
{"substance": "715415 (k[5mC]*kG*kA*dA*d[5mC]*dA*dT*dG*d[5mC]*dT*dG*dT*dG*kG*kA*kG; antisense) [compound 715415]", "answerLabel": "Criterion met"}
{"substance": "716481 (antisense kT*k[5mC]*kA*dG*d[5mC]*dA*dT*dA*dG*dA*dA*dG*dT*kA*kG*kG) [compound 716481]", "answerLabel": "Criterion not met"}
{"substance": "716513 (antisense kA*kA*kT*d[5mC]*dT*dT*dA*dA*dT*d[5mC]*dT*dG*dT*kG*kG*k[5mC]) [compound 716513]", "answerLabel": "Criterion met"}
{"substance": "716480 (antisense kG*k[5mC]*kA*dA*dG*dT*d[5mC]*dT*dT*dG*dT*dA*dA*kG*kT*kA) [compound 716480]", "answerLabel": "Criterion met"}
{"substance": "716424 (antisense kG*k[5mC]*kA*dA*dT*dG*dG*dA*d[5mC]*dA*dA*dG*dG*kA*kA*kG) [compound 716424]", "answerLabel": "Criterion not met"}

###

- Tested on: Yap1 mRNA
- runDescription: Antisense inhibition of human Yap1 in SNU-449 cells by modified oligonucleotides, single dose (Example 5, RTS36584)
- Format: cell-based
- runParameters: Yap1 mRNA, percent of untreated control; modified oligonucleotides targeting SEQ ID NO: 1 and 2; Table 47
Strand notation (5' to 3'): a small letter for the sugar, then the base; units joined by * are phosphorothioate-linked, units joined directly phosphodiester-linked; [ ] holds rarer units or linkages, { } end groups; capitals alone tell only the bases. e = 2'-O-(2-methoxyethyl) (MOE); k = constrained ethyl (cEt); [5mC] = 5-methylcytosine; d = 2'-deoxy (DNA)

{"substance": "1198873 (kA*kG*dT*dG*dT*dA*dT*dG*dT*d[5mC]*dA*kG*eA*kA*eG*kA; antisense) [Compound 1198873]", "YAP1 (% UT)": 4}
{"substance": "1197183 (antisense kA*k[5mC]*kT*dT*dT*dT*dA*d[5mC]*dA*dT*dT*dA*dG*kG*kA*kA) [Compound 1197183]", "YAP1 (% UT)": 41}
{"substance": "1198862 (kG*kA*d[5mC]*dA*dA*d[5mC]*dT*d[5mC]*dT*dT*dA*kT*eA*kT*eG*kG; antisense) [Compound 1198862]", "YAP1 (% UT)": 72}
{"substance": "1198859 (kA*k[5mC]*dT*d[5mC]*dT*dT*dA*dT*dA*dT*dG*kG*eT*kT*eT*kT; antisense) [Compound 1198859]", "YAP1 (% UT)": 33}
{"substance": "1197210 (antisense kA*kT*kG*dT*dA*dA*dT*dA*dT*dT*dG*d[5mC]*dA*kA*kT*k[5mC]) [Compound 1197210]", "YAP1 (% UT)": 105}
{"substance": "1197191 (antisense kA*kG*kT*dG*d[5mC]*dT*dT*dT*dG*dG*dA*dA*dG*kA*kT*k[5mC]) [Compound 1197191]", "YAP1 (% UT)": 40}
{"substance": "1197227 (antisense kT*kT*kA*dG*dA*d[5mC]*dT*dA*dA*dG*dT*dA*dA*kG*kG*kT) [Compound 1197227]", "YAP1 (% UT)": 64}
